B1: glmS ribozyme (parent)
chain: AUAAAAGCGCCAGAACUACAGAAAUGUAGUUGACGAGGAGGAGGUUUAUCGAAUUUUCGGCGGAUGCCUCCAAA

# Variants of: B1
# runDescription: self-cleavage kobs at 160 uM GlcN6P; higher = faster cleavage; RNA array
# assaySetup: with glucosamine-6-phosphate
Variants at the floor of the assay were thinned out.
If the reported self-cleavage kobs at 160 uM GlcN6P equals or exceeds 0.0001 s⁻¹, assign Yes. If not, assign No.

mutationNotation | className
G9C G63C | No
G32C A52C | No
A15C U55C | Yes
G43A U65C | No
A5U | Yes
A6G A33U U57C C58A | No
G29C G41U G63C C68A | No
G29A A39U G43U | No
G29U U30G A39U | No
U30G A39U A42U | Yes
G7U G51A | No
C34U G63A G66U | No
A14G A33G G60U | No
A12U A39C U56G | Yes
C8A A12U C67U | No
U65C | No
C8U U30C G59U | No
G32A A42G U56A C70A | No
U69C C71G | Yes
A15G U46A | Yes
C11A A15G U69G | Yes
A12G C16U | No
